assay: Caco-2 permeability assay (apical to basolateral); assay type: in vitro ADME, human; settings: Caco-2, Caco_Papp_Average
Where a SMILES comes first, the peptide text is derived from it. [ ]: non-standard residue; d: D form. NMeL = CN[C@@H](CC(C)C)C(=O)O; dNMeA = CN[C@H](C)C(=O)O

- Compound: "CC(C)C[C@@H]1NC(=O)[C@@H](CC(C)C)NC(=O)[C@H]2CCCN2C(=O)[C@H](CC(C)C)NC(=O)[C@@H](CC(C)C)NC(=O)[C@H](CC(C)C)NC(=O)[C@@H]2CCCN2C(=O)[C@@H](C)NC1=O [Design D8.1, DLEU LEU DPRO DLEU LEU DALA PRO LEU] (cyclo(L[dA]PL[dL]L[dP][dL]))"
  Papp A→B [×10⁻⁶ cm/s]: 23.3
- Compound: "CC[C@H](C)[C@@H]1NC(=O)[C@@H](CC(C)C)NC(=O)[C@H](CC(C)C)N(C)C(=O)[C@H](Cc2ccccc2)NC(=O)CN(C)C(=O)[C@@H]2CCCN2C(=O)[C@H](C(C)C)NC(=O)[C@H](Cc2ccccc2)N(C)C(=O)[C@H]2CCCN2C(=O)[C@H](CC(C)C)NC1=O (single isomer, unassigned) [Design D10.1.p1]"
  Papp A→B [×10⁻⁶ cm/s]: 8.65
- Compound: "CC[C@@H](C)[C@H]1NC(=O)[C@@H]2CCCN2C(=O)[C@@H]([C@H](C)CC)NC(=O)[C@@H](C)N(C)C(=O)[C@H](CC(C)C)NC(=O)[C@@H](Cc2ccccc2)NC(=O)[C@H](CC(C)C)N(C)C(=O)[C@H]2CCCN2C(=O)[C@@H](CC(C)C)NC(=O)[C@H](CC(C)C)NC(=O)[C@H]2CCCN2C1=O [Design D11.1] (cyclo(L[dL][dP][NMeL][dF]L[dNMeA][dI]P[dI][dP]))"
  Papp A→B [×10⁻⁶ cm/s]: 2.77

###

conditions: PAMPA
Where a SMILES comes first, the peptide text is derived from it. [ ]: non-standard residue; d: D form. dNMeL = CN[C@H](CC(C)C)C(=O)O; NMeNle = CCCC[C@H](NC)C(=O)O; NMeA = CN[C@@H](C)C(=O)O

- Compound: "CC(C)C[C@@H]1NC(=O)[C@H]2CCCN2C(=O)[C@@H]2CCCN2C(=O)[C@H](C)N(C)C(=O)[C@@H](C(C)C)NC(=O)[C@H](Cc2ccccc2)NC(=O)[C@H]2CCCN2C(=O)[C@@H]2CCCN2C(=O)[C@@H](CC(C)C)NC1=O [Design D9.20, DLEU PRO DPRO PHE DVAL *ALA PRO DPRO LEU] (cyclo(F[dV][NMeA]P[dP]L[dL]P[dP]))"
  PAMPA_Papp_Avg: "BQL"
- Compound: "CCCC[C@H]1C(=O)N[C@@H]([C@@H](C)CC)C(=O)N2CCC[C@H]2C(=O)N2CCC[C@@H]2C(=O)N[C@H](CC(C)C)C(=O)N[C@@H]([C@@H](C)CC)C(=O)N2CCC[C@@H]2C(=O)N[C@H](Cc2ccccc2)C(=O)N[C@@H](C(C)C)C(=O)N(C)[C@H](CC(C)C)C(=O)N1C [Design D10.44] (cyclo(IP[dP][dL]I[dP][dF]V[dNMeL][NMeNle]))"
  PAMPA_Papp_Avg: "BQL"
- Compound: "CC[C@H](C)[C@@H]1NC(=O)[C@@H](CC(C)C)NC(=O)[C@H](CC(C)C)NC(=O)[C@H]2CCCN2C(=O)[C@@H]2CCCN2C(=O)[C@H]([C@@H](C)CC)NC(=O)[C@@H](CC(C)C)N(C)C(=O)[C@@H](CC(C)C)N(C)C1=O [Design D8.9, ILE *DLEU *DLEU ILE PRO DPRO LEU DLEU] (cyclo(IP[dP]L[dL]I[dNMeL][dNMeL]))"
  PAMPA_Papp_Avg: "BQL"
- Compound: "CC(C)C[C@@H]1C(=O)N(C)[C@@H](Cc2ccccc2)C(=O)N[C@@H](C(C)C)C(=O)N2CCC[C@H]2C(=O)NCC(=O)N2CCC[C@H]2C(=O)N(C)[C@H](CC(C)C)C(=O)N[C@@H](C(C)C)C(=O)N[C@H](CC(C)C)C(=O)N1C (single isomer, unassigned) [Design D9.43.p2]"
  PAMPA_Papp_Avg: "3.30E-06"
- Compound: "CC(C)[C@@H]1NC(=O)[C@H](C)NC(=O)[C@H]2CCCN2C(=O)[C@@H](Cc2ccccc2)NC(=O)[C@H]2CCCN2C(=O)[C@@H]2CCCN2C(=O)[C@H](Cc2ccccc2)NC(=O)[C@H](C)NC(=O)[C@H]2CCCN2C1=O [Design D9.36, VAL DPRO ALA PHE PRO DPRO DPHE DPRO ALA] (cyclo(AFP[dP][dF][dP]AV[dP]))"
  PAMPA_Papp_Avg: "BQL"
- Compound: "CC[C@@H](C)[C@H]1NC(=O)[C@@H]2CCCN2C(=O)[C@H](CC(C)C)NC(=O)[C@@H](CC(C)C)NC(=O)[C@@H](Cc2ccccc2)NC(=O)[C@@H](Cc2ccccc2)NC(=O)[C@@H](C)NC(=O)[C@H]2CCCN2C(=O)[C@@H]2CCCN2C(=O)[C@@H](C(C)C)NC(=O)[C@@H]2CCCN2C(=O)[C@H]2CCCN2C1=O [Design D12.9] (cyclo([dV]P[dP][dA][dF][dF][dL]LP[dI][dP]P))"
  PAMPA_Papp_Avg: "BQL"
